Molecular target: APOL1 (Homo sapiens, UniProt O14791)
Sequence (O14791 whole entry S342G/I384M, form open): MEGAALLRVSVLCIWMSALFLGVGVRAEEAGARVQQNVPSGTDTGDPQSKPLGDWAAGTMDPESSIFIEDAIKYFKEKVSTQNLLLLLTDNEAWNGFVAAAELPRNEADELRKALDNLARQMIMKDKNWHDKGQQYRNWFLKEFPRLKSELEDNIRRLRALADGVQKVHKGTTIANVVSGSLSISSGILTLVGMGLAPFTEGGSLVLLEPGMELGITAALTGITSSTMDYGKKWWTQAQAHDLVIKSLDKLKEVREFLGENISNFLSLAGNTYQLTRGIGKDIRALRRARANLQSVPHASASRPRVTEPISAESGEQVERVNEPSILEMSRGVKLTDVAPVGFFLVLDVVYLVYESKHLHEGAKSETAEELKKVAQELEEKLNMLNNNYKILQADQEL
Test: MultiTox-Fluor Multiplex Cytotoxicity Assay in tet-inducible APOL1 T-REx-HEK293 cells (cell rescue, ratio of dead to live cells)
Details: tet-inducible transgenic APOL1 T-REx-HEK293 cell lines, 50 ng/mL tet, 24 hours; read-out: IP50 (i.e., IC50 for cell proliferation)
pIC50: −log10 of the molar value.

- molecule: "C[C@H]1C[C@@]2(CCN1Cc1cnn(CC(O)C(N)=O)c1)OCCc1c2sc(C(F)(F)F)c1CO (stereo partly shown)"
  pIC50: "> 7.00"
- molecule: "C[C@H]1C[C@@]2(CCN1CC1(C)COC1)OCCc1cc(CC(F)F)sc12"
  pIC50: "6.30 to 7.00"
- molecule: "C[C@H]1C[C@@]2(CCN1Cc1ccc(C#N)nc1)OCCc1cc(Cl)sc12"
  pIC50: "6.30 to 7.00"
- molecule: "C[C@H]1C[C@@]2(CCN1Cc1cnn(CC(O)CC(C)(C)O)c1)OCCc1c2sc(C(F)(F)F)c1CO (stereo partly shown)"
  pIC50: "> 7.00"
- molecule: "C[C@H]1C[C@@]2(CCN1Cc1cnn(CCS(C)(=O)=O)c1)OCC(O)c1cc(C(F)(F)F)sc12 (stereo partly shown) [Compound 880]"
  pIC50: "> 7.00"
- molecule: "CCc1cc2c(s1)CCO[C@@]21CCN(C[C@H]2C[C@@H](NS(=O)(=O)c3ccc(C(N)=O)cc3)C2)[C@@H](C)C1"
  pIC50: "> 7.00"
- molecule: "CCc1cc2c(s1)CCOC21CCN(Cc2cn(CC(CC)CO)nn2)C(C)C1 (stereo not shown)"
  pIC50: "> 7.00"

----------
Known pIC50 of a selection of compounds
Target: APOL1 (Homo sapiens, UniProt O14791)
Assay: MultiTox-Fluor Multiplex Cytotoxicity Assay in tet-inducible APOL1 T-REx-HEK293 cells (cell rescue, ratio of dead to live cells)
Conditions: tet-inducible transgenic APOL1 T-REx-HEK293 cell lines, 50 ng/mL tet, 24 hours; read-out: IP50 (i.e., IC50 for cell proliferation)
pIC50: −log10 of the molar value.

- compound: "CCc1cc2c(s1)CCOC21CCN(Cc2cnc(-c3ccccn3)s2)CC1"
  pIC50: "6.00 to 6.30"
- compound: "CCc1cc2c(s1)CCOC21CCN(Cc2ccc(NC3(COC)CC3)nc2)CC1"
  pIC50: "6.30 to 7.00"
- compound: "CCc1cc2c(s1)CCO[C@@]21CCN(CC2CN(C(=O)Cc3sc(O)nc3O)C2)[C@@H](C)C1"
  pIC50: "> 7.00"
- compound: "C[C@H]1C[C@@]2(CCN1Cc1cnn(C[C@H](O)C(C)(C)O)c1)OC[C@@H](O)c1cc(C(F)(F)F)sc12"
  pIC50: "> 7.00"
- compound: "CCc1cc2c(s1)CCO[C@@]21CCN(Cc2cn([C@H]3CCN(S(C)(=O)=O)C3)nn2)[C@@H](C)C1"
  pIC50: "> 7.00"
- compound: "CCc1cc2c(s1)CCO[C@@]21CCN(CC2CN(C(=O)C3CCS(=O)(=O)N3)C2)[C@@H](C)C1 (stereo partly shown)"
  pIC50: "> 7.00"
- compound: "CCc1cc2c(s1)CCO[C@@]21CCN(C[C@H]2C[C@@H](NC(=O)C(O)C(C)C)C2)[C@@H](C)C1 (stereo partly shown)"
  pIC50: "> 7.00"

----------
Molecular target: UniProtKB O14791
Test: MultiTox-Fluor Multiplex Cytotoxicity Assay in tet-inducible APOL1 T-REx-HEK293 cells (cell rescue, ratio of dead to live cells)
Details: tet-inducible transgenic APOL1 T-REx-HEK293 cell lines, 50 ng/mL tet, 24 hours; read-out: IP50 (i.e., IC50 for cell proliferation)
value kind: IC50

- molecule: "C[C@H]1C[C@@]2(CCN1Cc1cn(C)nn1)OCCc1cc(CC(F)F)sc12"
  observed result: "< 100 nM"
- molecule: "C[C@H]1C[C@@]2(CCN1Cc1cn(CCO)nn1)OCCc1cc(Cl)sc12"
  observed result: "100 to 500 nM"
- molecule: "CCc1cc2c(s1)CCOC21CCN(Cc2cn(CC(O)C3CCOCC3)nn2)C(C)C1 (stereo not shown)"
  observed result: "< 100 nM"
- molecule: "CCc1cc2c(s1)CCOC21CCN(Cc2cn(CC3CC(=O)N(CCOC)C3)nn2)C(C)C1 (stereo not shown)"
  observed result: "100 to 500 nM"
- molecule: "C[C@H]1C[C@@]2(CCN1Cc1cnn(CCS(C)(=O)=O)c1)OCCc1cc(C#N)sc12"
  observed result: "< 100 nM"
- molecule: "CCc1cc2c(s1)CCOC21CCN(Cc2ccc(C(=O)N[C@H](C)CO)nc2)CC1"
  observed result: "< 100 nM"
- molecule: "C[C@H]1C[C@@]2(CCN1Cc1cnn(CC3(O)CCS(=O)(=O)CC3)c1)OC[C@@H](O)c1cc(C(F)(F)F)sc12"
  observed result: "< 100 nM"
- molecule: "C[C@H]1C[C@@]2(CCN1Cc1ncco1)OCCc1cc(CC(F)F)sc12"
  observed result: "100 to 500 nM"
- molecule: "C[C@H]1C[C@@]2(CCN1Cc1cnn(CC(O)C3CCC3)c1)OCCc1c2sc(C(F)(F)F)c1CO (stereo partly shown)"
  observed result: "< 100 nM"
- molecule: "CNC(=O)C(C)(O)Cn1cc(CN2CC[C@]3(C[C@@H]2C)OCCc2c3sc(C(F)(F)F)c2CO)cn1 (stereo partly shown)"
  observed result: "< 100 nM"
- molecule: "CCc1cc2c(s1)CCOC21CCN(Cc2cn(CC(COC)OC)nn2)C(C)C1 (stereo not shown)"
  observed result: "< 100 nM"
- molecule: "CCc1cc2c(s1)CCO[C@@]21CCN(CC2CN(S(=O)(=O)c3ccccc3)C2)[C@@H](C)C1"
  observed result: "500 to 1000 nM"
- molecule: "CCc1cc2c(s1)CCO[C@@]21CCN(Cc2cn(C3CN(S(=O)(=O)CCO)C3)nn2)[C@@H](C)C1"
  observed result: "< 100 nM"
- molecule: "CCc1cc2c(s1)C(C)COC21CCN(Cc2cn(CCS(C)(=O)=O)nn2)[C@@H](C)C1 (stereo partly shown) [Compound 535]"
  observed result: "< 100 nM"
- molecule: "CCc1cc2c(s1)CCOC21CCN(Cc2cn(CC(O)C(C)(C)O)nn2)C(C)C1 (stereo not shown) [Compound 123]"
  observed result: "< 100 nM"
- molecule: "CCc1cc2c(s1)CCO[C@@]21CCN(CC2CN(C(=O)[C@@H]3CSC(=O)N3)C2)[C@@H](C)C1"
  observed result: "< 100 nM"

----------
Known pIC50 of a selection of compounds
Molecular target: APOL1 (Homo sapiens)
Assay: MultiTox-Fluor Multiplex Cytotoxicity Assay in tet-inducible APOL1 T-REx-HEK293 cells (cell rescue, ratio of dead to live cells)
Details: tet-inducible transgenic APOL1 T-REx-HEK293 cell lines, 50 ng/mL tet, 24 hours; read-out: IP50 (i.e., IC50 for cell proliferation)
pIC50: −log10 of the molar value.

- compound: "CCc1cc2c(s1)CCO[C@@]21CCN(C[C@H]2C[C@@H](NC(=O)C3CC(=O)N(C)C3)C2)[C@@H](C)C1 (stereo partly shown)"
  pIC50: "6.30 to 7.00"
- compound: "CCc1sc2c(c1Br)[C@]1(CCN(Cc3cn(CCS(C)(=O)=O)nn3)[C@@H](C)C1)OCC2"
  pIC50: "6.30 to 7.00"
- compound: "CCc1cc2c(s1)CCO[C@@]21CCN(CC2CN(C(=O)OC(C)(C)C)C2)[C@@H](C)C1"
  pIC50: "> 7.00"
- compound: "C[C@H]1C[C@@]2(CCN1Cc1cnn(CC(=O)N(C)C)c1)OCCc1cc(Cl)sc12"
  pIC50: "> 7.00"
- compound: "CCc1cc2c(s1)CCO[C@@]21CCN(Cc2cnc(N[C@@H](CO)[C@H](C)O)nc2)[C@@H](C)C1"
  pIC50: "> 7.00"
- compound: "CCc1cc2c(s1)CCO[C@@]21CCN(Cc2cn(CCS(C)(=O)=O)nn2)[C@H](C)C1"
  pIC50: "6.00 to 6.30"
- compound: "CCc1cc2c(s1)CCOC21CCN(Cc2ccc(NS(C)(=O)=O)cc2)CC1"
  pIC50: "6.30 to 7.00"
- compound: "CCc1cc2c(s1)CCO[C@@]21CCN(C[C@H]2C[C@@H](NS(=O)(=O)c3ccccc3OC)C2)[C@@H](C)C1"
  pIC50: "> 7.00"
- compound: "C[C@H]1C[C@@]2(CCN1Cc1cnn(C)c1)OCCc1cc(CO)sc12"
  pIC50: "6.30 to 7.00"
- compound: "C[C@H]1C[C@@]2(CCN1Cc1cnc(N3CCOCC3)nc1)OCCc1c2sc(Cl)c1CO"
  pIC50: "> 7.00"
- compound: "C[C@H]1C[C@@]2(CCN1Cc1cnn(CC(O)CC3(C#N)CC3)c1)OC[C@@H](O)c1cc(C(F)(F)F)sc12 (stereo partly shown)"
  pIC50: "> 7.00"
- compound: "CCc1cc2c(s1)CCOC21CCN(Cc2cn(CCS(=O)(=O)NC)nn2)CC1"
  pIC50: "6.00 to 6.30"
- compound: "CCc1cc2c(s1)CCO[C@@]21CCN(C[C@H]2C[C@@H](NC(=O)c3cc(CO)n[nH]3)C2)[C@@H](C)C1"
  pIC50: "> 7.00"
- compound: "CCc1cc2c(s1)CCOC21CCN(Cc2ccc(C(=O)NC3CCCC3=O)nc2)CC1 (stereo not shown)"
  pIC50: "6.30 to 7.00"
- compound: "C[C@H]1C[C@@]2(CCN1C[C@@H](O)C(N)=O)OCCc1sc(Cl)cc12"
  pIC50: "6.30 to 7.00"
- compound: "CCc1cc2c(s1)CCO[C@@]21CCN(CC2CN(C(=O)CCC3CCCC3)C2)[C@@H](C)C1"
  pIC50: "> 7.00"
- compound: "CCc1cc2c(s1)CCO[C@@]21CCN(Cc2cn(CC(=O)NCCO)nn2)[C@@H](C)C1"
  pIC50: "6.30 to 7.00"
- compound: "C[C@H]1C[C@@]2(CCN1Cc1cccc(Cl)c1O)OCCc1c2sc(Cl)c1CO"
  pIC50: "6.00 to 6.30"
- compound: "C[C@H]1C[C@@]2(CCN1Cc1cnn(C[C@H](O)CO)c1)OC[C@@H](O)c1cc(C(F)(F)F)sc12"
  pIC50: "> 7.00"
- compound: "CCc1cc2c(s1)CCO[C@@]21CCN(CC2CN(C(=O)c3cn[nH]c3)C2)[C@@H](C)C1"
  pIC50: "> 7.00"
- compound: "C[C@H]1C[C@@]2(CCN1Cc1ccn(C)n1)OCCc1cc(CC(F)F)sc12"
  pIC50: "> 7.00"
- compound: "CCc1cc2c(s1)CCO[C@@]21CCN(Cc2cn(Cc3nnc4n3CCCC4)nn2)[C@@H](C)C1"
  pIC50: "> 7.00"
- compound: "C[C@H]1C[C@@]2(CCN1Cc1cnn(C[C@@H](O)C(C)(C)O)c1)OC[C@@H](O)c1cc(C(F)(F)F)sc12"
  pIC50: "> 7.00"
- compound: "C[C@H]1C[C@@]2(CCN1C[C@H]1C[C@@H](NC(=O)C3CC3(F)F)C1)OCCc1cc(CC(F)F)sc12 (stereo partly shown)"
  pIC50: "> 7.00"
- compound: "CCc1cc2c(s1)CCO[C@@]21CCN(Cc2cn(CCn3ccnc3C)nn2)[C@@H](C)C1"
  pIC50: "6.30 to 7.00"
- compound: "CCc1cc2c(s1)CCO[C@@]21CCN(Cc2ccon2)[C@@H](C)C1"
  pIC50: "> 7.00"
- compound: "CCc1cc2c(s1)CCOC21CCN(Cc2cc(O)ccn2)CC1"
  pIC50: "6.00 to 6.30"
- compound: "C[C@H]1C[C@@]2(CCN1Cc1cnn(C[C@@H](O)C(=O)N(C)C)c1)OC[C@@H](O)c1cc(C(F)(F)F)sc12"
  pIC50: "> 7.00"
- compound: "CCc1cc2c(s1)CCOC21CCN(Cc2cn(Cc3ccc[nH]c3=O)nn2)CC1"
  pIC50: "6.00 to 6.30"
- compound: "CCc1cc2c(s1)CCO[C@]21CCN(Cc2cnn(CCS(C)(=O)=O)c2)[C@@H](C)C1"
  pIC50: "> 7.00"
- compound: "CCc1cc2c(s1)CCO[C@@]21CCN(Cc2cn(CCc3c[nH]cn3)nn2)[C@@H](C)C1"
  pIC50: "> 7.00"
